# collection of IC50 values tested on HIF PHD2 (Homo sapiens)
# Sequence (Q9GZT9 whole entry): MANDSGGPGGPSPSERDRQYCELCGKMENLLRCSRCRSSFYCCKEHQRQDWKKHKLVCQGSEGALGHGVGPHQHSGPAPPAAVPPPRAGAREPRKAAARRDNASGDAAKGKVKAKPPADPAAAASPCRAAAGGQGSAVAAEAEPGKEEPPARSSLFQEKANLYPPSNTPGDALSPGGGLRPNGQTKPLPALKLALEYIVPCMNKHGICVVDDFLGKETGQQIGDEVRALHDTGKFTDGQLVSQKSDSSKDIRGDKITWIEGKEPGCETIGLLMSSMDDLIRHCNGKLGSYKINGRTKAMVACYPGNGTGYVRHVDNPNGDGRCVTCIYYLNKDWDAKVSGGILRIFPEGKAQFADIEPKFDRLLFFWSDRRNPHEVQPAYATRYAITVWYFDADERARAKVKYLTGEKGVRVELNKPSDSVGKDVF
Respond with the figure and its unit, in that order.

Recall the reported IC50 of Cn1c(=O)c(C(=O)NCC(=O)O)c(O)c2cc(C3=CCCC3)nnc21 [Example 4] when tested on HIF PHD2 (Homo sapiens).
17 nM

Recall the reported IC50 of Cn1c(=O)c(C(=O)NCC(=O)O)c(O)c2cnc(-c3cc4ccccc4s3)nc21 [Example 36] when tested on HIF PHD2 (Homo sapiens).
7.4 nM

Recall the reported IC50 of Cn1c(=O)c(C(=O)NCC(=O)O)c(O)c2cnc(-c3ccc4sccc4c3)nc21 [Example 51] when tested on HIF PHD2 (Homo sapiens).
9.4 nM

Recall the reported IC50 of COc1ccc(-c2ncc3c(O)c(C(=O)NCC(=O)O)c(=O)n(C)c3n2)cc1 [Example 33] when tested on HIF PHD2 (Homo sapiens).
6.4 nM

Recall the reported IC50 of Cn1c(-c2ncc3c(O)c(C(=O)NCC(=O)O)c(=O)n(C)c3n2)cc2ccccc21 [Example 57] when tested on HIF PHD2 (Homo sapiens).
14 nM

Recall the reported IC50 of CC(C)Oc1ccc(-c2cc3c(O)c(C(=O)NCC(=O)O)c(=O)n(C)c3nn2)cc1 [Example 8] when tested on HIF PHD2 (Homo sapiens).
21 nM

Recall the reported IC50 of Cn1c(=O)c(C(=O)NCC(=O)O)c(O)c2cnc(-c3cccc4[nH]ccc34)nc21 [Example 56] when tested on HIF PHD2 (Homo sapiens).
5.3 nM

Recall the reported IC50 of Cn1c(=O)c(C(=O)NCC(=O)O)c(O)c2cnc(-c3csc4ccccc34)nc21 [Example 40] when tested on HIF PHD2 (Homo sapiens).
13 nM

Recall the reported IC50 of Cn1c(=O)c(C(=O)NCC(=O)O)c(O)c2cnc(-c3ccsc3)nc21 [Example 54] when tested on HIF PHD2 (Homo sapiens).
4 nM

Recall the reported IC50 of Cn1c(=O)c(C(=O)NCC(=O)O)c(O)c2cnc(-c3ccc4occc4c3)nc21 [Example 48] when tested on HIF PHD2 (Homo sapiens).
7.1 nM

Recall the reported IC50 of Cn1c(=O)c(C(=O)NCC(=O)O)c(O)c2cnc(-c3ccoc3)nc21 [Example 30] when tested on HIF PHD2 (Homo sapiens).
5.3 nM

Recall the reported IC50 of Cn1c(=O)c(C(=O)NCC(=O)O)c(O)c2cnc(N3CCCCC3)nc21 [Example 11] when tested on HIF PHD2 (Homo sapiens).
16 nM

Recall the reported IC50 of CC(C)Oc1cccc(-c2cc3c(O)c(C(=O)NCC(=O)O)c(=O)n(C)c3nn2)c1 [Example 7] when tested on HIF PHD2 (Homo sapiens).
26 nM
